Target: T1, human CAPRIN-1 protein on the cell surfaces of human cancer cell lines and in human cancer tissues (human, UniProt Q14444 2-709)
T1 sequence (looked up): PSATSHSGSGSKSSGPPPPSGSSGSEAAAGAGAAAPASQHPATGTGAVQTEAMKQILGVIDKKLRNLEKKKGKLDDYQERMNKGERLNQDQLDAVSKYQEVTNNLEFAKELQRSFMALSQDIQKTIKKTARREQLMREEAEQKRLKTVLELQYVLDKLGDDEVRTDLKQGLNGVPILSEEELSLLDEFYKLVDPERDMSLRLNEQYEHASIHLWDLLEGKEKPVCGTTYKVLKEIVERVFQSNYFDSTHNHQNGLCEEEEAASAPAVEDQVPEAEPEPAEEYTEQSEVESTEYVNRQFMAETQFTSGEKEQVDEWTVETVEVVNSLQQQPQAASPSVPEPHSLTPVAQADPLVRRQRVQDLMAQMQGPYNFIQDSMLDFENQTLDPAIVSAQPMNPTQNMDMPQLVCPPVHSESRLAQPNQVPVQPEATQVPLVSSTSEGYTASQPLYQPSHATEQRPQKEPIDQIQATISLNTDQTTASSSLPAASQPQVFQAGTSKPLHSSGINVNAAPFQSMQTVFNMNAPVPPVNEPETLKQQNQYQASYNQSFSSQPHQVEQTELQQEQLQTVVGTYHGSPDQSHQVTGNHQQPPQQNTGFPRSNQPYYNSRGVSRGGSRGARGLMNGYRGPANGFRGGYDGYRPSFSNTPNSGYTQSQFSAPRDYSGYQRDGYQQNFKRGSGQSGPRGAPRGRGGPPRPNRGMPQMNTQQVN
Experiment: cell-based or functional assay
Property Label: cytotoxic activity (ADCC) against SW480

Use these answered entries as a reference point.
anti-CAPRIN-1 mouse monoclonal antibody #6 (antibody, V domains shown, Mouse hybridoma antibody; detected with anti-mouse IgG) VH: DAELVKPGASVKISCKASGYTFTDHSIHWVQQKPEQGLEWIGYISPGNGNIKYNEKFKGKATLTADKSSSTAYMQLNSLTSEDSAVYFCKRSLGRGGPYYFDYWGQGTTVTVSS VL: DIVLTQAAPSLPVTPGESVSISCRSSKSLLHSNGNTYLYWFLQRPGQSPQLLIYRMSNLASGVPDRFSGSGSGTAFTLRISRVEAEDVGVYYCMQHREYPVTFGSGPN = ≥ 17%
anti-CAPRIN-1 mouse monoclonal antibody #5 (antibody, V domains shown, Mouse hybridoma antibody; detected with anti-mouse IgG) VH: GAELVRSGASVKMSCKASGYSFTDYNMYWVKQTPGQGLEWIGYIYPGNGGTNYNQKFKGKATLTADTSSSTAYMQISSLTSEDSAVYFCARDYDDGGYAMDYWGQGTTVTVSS VL: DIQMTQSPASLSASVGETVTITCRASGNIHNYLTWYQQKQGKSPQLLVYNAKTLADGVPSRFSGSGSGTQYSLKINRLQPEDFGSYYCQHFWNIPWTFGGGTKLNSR = ≥ 17%
anti-CAPRIN-1 mouse monoclonal antibody #4 (antibody, V domains shown) VH: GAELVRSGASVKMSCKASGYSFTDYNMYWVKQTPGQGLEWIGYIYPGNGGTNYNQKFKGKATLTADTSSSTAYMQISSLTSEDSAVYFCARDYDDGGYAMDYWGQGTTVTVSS VL: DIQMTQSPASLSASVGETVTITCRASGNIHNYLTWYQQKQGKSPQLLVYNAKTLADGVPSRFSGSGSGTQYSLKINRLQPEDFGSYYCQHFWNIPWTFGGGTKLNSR = ≥ 17%

// below: cytotoxic activity (ADCC) against SW480 requested for another binder
Query :: Requested read-out: cytotoxic activity (ADCC) against SW480. Entry: human-chicken chimeric antibody #1 having the chicken monoclonal antibody #1 variable region (antibody, V domains shown, also called anti-CAPRIN-1 antibody #1; human-chicken chimeric monoclonal antibody (#1); not shown: human IgG1 H-chain constant region; human IgG1 L-chain constant region) VH: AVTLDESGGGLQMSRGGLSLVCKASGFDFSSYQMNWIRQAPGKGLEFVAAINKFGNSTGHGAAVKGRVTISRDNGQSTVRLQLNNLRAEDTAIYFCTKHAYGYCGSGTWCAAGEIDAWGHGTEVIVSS VL: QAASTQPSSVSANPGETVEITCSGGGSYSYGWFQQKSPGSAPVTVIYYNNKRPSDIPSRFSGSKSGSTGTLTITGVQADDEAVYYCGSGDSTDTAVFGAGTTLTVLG
Result :: 26.9%
